Listing of entries alongside the reported Binding of CRJB (10 μg/ml) to looped/cyclic peptide (PEPSCAN-ELISA).
# System: human monoclonal antibody CRJB
# Format: binding
API note: the answer field is a bare number with no unit suffix.

Here are 5 sequences together with their reported answers.
| Chain | Val |
| --- | --- |
| LMDGTWVAMQTSNET | 76 |
| SSLLQQHMELLESSV | 76 |
| LIPEMQSSLLQQHME | 85 |
| GNVLIPEMQSSLLQQ | 103 |
| RRLSHLRKLVPGFGK | 88 |

// query Binding of CRJB (10 μg/ml) to looped/cyclic peptide (PEPSCAN-ELISA) value for entry `IEHLVVEELVRKREE` 112

What about this sequence? `VEELVRKREECLDAL` 27

* * *

# Test system: human monoclonal antibody CRJB
# Format: binding
Listing of entries alongside the reported Binding of CRJB (10 μg/ml) to looped/cyclic peptide (PEPSCAN-ELISA signal).
API note: the answer field is a bare number with no unit suffix.

Here are 5 sequences together with their reported answers.
| Chain | Val |
| --- | --- |
| ELKVGYILAIKMNGF | 83 |
| FRPTPDACRAAYNWK | 88 |
| RPTPDACRAAYNWKM | 51 |
| VTEAENYTNFVGYVT | 80 |
| TCTGVVTEAENYTNF | 93 |

// query Binding of CRJB (10 μg/ml) to looped/cyclic peptide (PEPSCAN-ELISA signal) value for entry `ESLVIISPSVADLDP` 65

What about this sequence? `TTFKRKHFRPTPDAC` 78

* * *

Listing of entries alongside the reported Binding of CRJA to linear peptide (PEPSCAN-ELISA signal).
# Test system: human monoclonal antibody CRJA
# Format: binding
API note: the answer field is a bare number with no unit suffix.

| Chain | Val |
| --- | --- |
| KESLVIISPSVADLD | 123 |
| GCTNLSGFSYMELKV | 72 |

// query Binding of CRJA to linear peptide (PEPSCAN-ELISA signal) value for entry `DKLGPWSPIDIHHLS` 78

What about this sequence? `PSKGCLRVGGRCHPH` 78

What about this sequence? `YVTTTFKRKHFRPTP` 84

What about this sequence? `GTWVAMQTSNETKWC` 61

What about this sequence? `LSCPNNLVVEDEGCT` 90

What about this sequence? `TNLSGFSYMELKVGY` 102

What about this sequence? `VRKREECLDALESIM` 111

* * *

Listing of entries alongside the reported Binding of CRJA (10 μg/ml) to looped/cyclic peptide (PEPSCAN-ELISA signal).
# Test system: human monoclonal antibody CRJA
# Assay type: binding

| Chain | Val |
| --- | --- |
| YILAIKMNGFTCTGV | 45 |
| CRAAYNWKMAGDPRY | 111 |
| AVSSTYCSTNHDYTI | 91 |
| FTCTGVVTEAENYTN | 96 |
| KLGPWSPIDIHHLSC | 85 |
| VTEAENYTNFVGYVT | 97 |

// query Binding of CRJA (10 μg/ml) to looped/cyclic peptide (PEPSCAN-ELISA signal) value for entry `AGDPRYEESLHNPYP` 58

What about this sequence? `PRLGMSCDIFTNSRG` 96

What about this sequence? `SLVIISPSVADLDPY` 87

* * *

# System: human monoclonal antibody CRJA
# Format: binding
// NB: equality with 100 counts as condition not met; only Binding of CRJA to linear peptide (PEPSCAN-ELISA signal) strictly below is condition met

API: query returns whether the sequence falls strictly under 100 in Binding of CRJA to linear peptide (PEPSCAN-ELISA signal). Query: `PYDRSLHSRVFPSGK` condition not met

What about this sequence? `KTTKESLVIISPSVA` condition met

What about this sequence? `EGCTNLSGFSYMELK` condition met

What about this sequence? `GLRLMDGTWVAMQTS` condition not met

What about this sequence? `RGLYKSLKGACKLKL` condition not met

What about this sequence? `LVIISPSVADLDPYD` condition not met

What about this sequence? `SHLRKLVPGFGKAYT` condition not met

What about this sequence? `LIPEMQSSLLQQHME` condition not met

* * *

# Test system: human monoclonal antibody CRJB
# Format: binding
Recorded Binding of CRJB (10 μg/ml) to looped/cyclic peptide (PEPSCAN-ELISA signal) determines the label; the label ranges are lower = under 70, middle = from 70 up to 80, upper = 80 and over

Record excerpt, results attached:
| Chain | Group |
| --- | --- |
| SRVFPSGKCSGVAVS | upper |
| LKVGYILAIKMNGFT | middle |
| SGVAVSSTYCSTNHD | lower |

Place this sequence in its band: `AGDPRYEESLHNPYP` lower

What about this sequence? `VTTTFKRKHFRPTPD` upper

What about this sequence? `LHNPYPDYRWLRTVK` upper

What about this sequence? `YPDYRWLRTVKTTKE` middle

What about this sequence? `LAIKMNGFTCTGVVT` upper

* * *

# Test system: human monoclonal antibody CRJB
# Assay type: binding
Quantity: Binding of CRJB to linear peptide (PEPSCAN-ELISA signal)
API note: the answer field is a bare number with no unit suffix.

| Chain | Val |
| --- | --- |
| VTEAENYTNFVGYVT | 90 |
| YRWLRTVKTTKESLV | 117 |
| KSVRTWNEILPSKGC | 125 |
| PSVADLDPYDRSLHS | 114 |

// query Binding of CRJB to linear peptide (PEPSCAN-ELISA signal) value for entry `LRKLVPGFGKAYTIF` 118

What about this sequence? `SVIPLVHPLADPSTV` 137

What about this sequence? `GGRCHPHVNGVFFNG` 119

What about this sequence? `SPSVADLDPYDRSLH` 114

What about this sequence? `DYRWLRTVKTTKESL` 111

What about this sequence? `ISPSVADLDPYDRSL` 119

What about this sequence? `VEELVRKREECLDAL` 111

What about this sequence? `LQQHMELLESSVIPL` 134

* * *

# Tested on: human monoclonal antibody CRJB
# Type: binding
Quantity: Binding of CRJB (10 μg/ml) to looped/cyclic peptide (PEPSCAN-ELISA)
API note: the answer field is a bare number with no unit suffix.

Here are 3 sequences together with their reported answers.
| Chain | Val |
| --- | --- |
| KSVRTWNEILPSKGC | 104 |
| ILGPDGNVLIPEMQS | 92 |
| KGSETCGFVDERGLY | 72 |

// query Binding of CRJB (10 μg/ml) to looped/cyclic peptide (PEPSCAN-ELISA) value for entry `ETCGFVDERGLYKSL` 78

What about this sequence? `LVNLHDFRSDEIEHL` 23

What about this sequence? `GTWVAMQTSNETKWC` 85

What about this sequence? `VPGFGKAYTIFNKTL` 42

What about this sequence? `FNGIILGPDGNVLIP` 88

What about this sequence? `GCLRVGGRCHPHVNG` 112

* * *

# Tested on: human monoclonal antibody CRJA
# Format: binding
I would appreciate it if you labelled entries rule met when Binding of CRJA (10 μg/ml) to looped/cyclic peptide (PEPSCAN-ELISA signal) is 80 or higher, otherwise rule not met.

Record excerpt, results attached:
| Chain | Target Desc | Group |
| --- | --- | --- |
| IKMNGFTCTGVVTEA | human monoclonal antibody CRJA | rule met |
| PSGKCSGVAVSSTYC | human monoclonal antibody CRJA | rule not met |
| SRVFPSGKCSGVAVS | human monoclonal antibody CRJA | rule met |
| PNNLVVEDEGCTNLS | human monoclonal antibody CRJA | rule met |
| TCTGVVTEAENYTNF | human monoclonal antibody CRJA | rule met |
| WSPIDIHHLSCPNNL | human monoclonal antibody CRJA | rule met |
| FTNSRGKRASKGSET | human monoclonal antibody CRJA | rule met |
| VIISPSVADLDPYDR | human monoclonal antibody CRJA | rule met |

In plain terms: is recorded Binding of CRJA (10 μg/ml) to looped/cyclic peptide (PEPSCAN-ELISA signal) at least 80 for `DYTIWMPENPRLGMS` ? rule met

What about this sequence? `NPYPDYRWLRTVKTT` rule met

What about this sequence? `SGKCSGVAVSSTYCS` rule met

What about this sequence? `SPIDIHHLSCPNNLV` rule met

What about this sequence? `PSVADLDPYDRSLHS` rule not met

What about this sequence? `PDACRAAYNWKMAGD` rule met

What about this sequence? `NFVGYVTTTFKRKHF` rule met

What about this sequence? `YRWLRTVKTTKESLV` rule not met

What about this sequence? `YCSTNHDYTIWMPEN` rule met

The measured values listed here are drawn from patent US20060263802A1.
